- protocol notes: Animal toxicity bioassay (acute toxicity, LD50)
- Type: in vivo
- condition notes: both sexes, mouse, in vivo, ip; white mice, intraperitoneal injection, observed 14 days; read-out: LD50

# smiles entry, LD50 at 14 days
data = [
    ("CCOc1ccc(C(Cl)=CC(=NN=C2c3ccccc3-c3ccccc32)C(=O)OC)cc1", "> 200 mg/kg"),
]
